Measurement notes: physchem
Cond: pH 10
Measured endpoint: chromatographic logD
Numbers only.

Example compounds with recorded chromatographic logD:
[
  {
    "Compound": "Nc1cccc(N)c1 [1,3-diaminobenzene]",
    "Measured endpoint": "chromatographic logD",
    "Experimental result": -0.15
  },
  {
    "Compound": "CCc1ccccc1N [2-Ethylaniline]",
    "Measured endpoint": "chromatographic logD",
    "Experimental result": 1.71
  }
]

For every item below, please supply its chromatographic logD.
1. Nc1ccc([N+](=O)[O-])cc1Cl [2-Chloro-4-nitroaniline]
2. Nc1c(Cl)cc([N+](=O)[O-])cc1[N+](=O)[O-] [2-Chloro-4,6-dinitroaniline]
3. Nc1ccc([N+](=O)[O-])cc1[N+](=O)[O-] [2,4-Dinitroaniline]
4. Cc1cc([N+](=O)[O-])ccc1N [2-Methyl-4-nitroaniline]

1: 1.92; 2: 1.97; 3: 1.64; 4: 1.6

I would be grateful if you could share the reported chromatographic logD for Nc1ccccc1N [1,2-diaminobenzene] . 0.28

====

Measurement notes: logD determined by multi-parameter QSRR models from IS-RPLC logkw
Cond: IS-RPLC retention (logkw), pH 7
For each record, write down the corresponding chromatographic logD.
Answers are plain numbers.

Example molecules with recorded chromatographic logD:
[
  {
    "Molecule": "Nc1ccc(Br)cc1 [4-Bromoaniline]",
    "chromatographic logD": 1.83
  },
  {
    "Molecule": "Cc1c[nH]cn1 [4-Methylimidazole]",
    "chromatographic logD": -0.54
  },
  {
    "Molecule": "Nc1cccc(S(=O)(=O)c2cccc(N)c2)c1 [3,3’-Sulfonyldianiline]",
    "chromatographic logD": 1.7
  },
  {
    "Molecule": "COc1nc(C)nc(N)n1 [2-Amino-4-methyl-6-methoxy-s-triazine]",
    "chromatographic logD": 1.28
  },
  {
    "Molecule": "CCC(C(N)=O)N1CCCC1=O (centres unmarked) [Etiracetam]",
    "chromatographic logD": 0.7
  }
]

For every item below, please supply its chromatographic logD.
1. c1ccc(CNCc2ccccc2)cc1 [Dibenzylamine]
2. Nc1ncncn1 [2-Amino-1,3,5-triazine]
3. Nc1ccc(I)cc1 [4-Iodoaniline]
4. O=C(n1ccnc1)n1ccnc1 [1,1’-Carbonyldiimidazole]
5. CCc1ccccn1 [2-Ethylpyridine]

1.52
1.27
2.14
-0.52
1.62

I would be grateful if you could share the reported chromatographic logD for O=C(O)c1cc(O)nc(O)c1 [Citrazinic acid] . 2.29

====

Cond: pH 10
Measured endpoint: logDpH 10.0
One number for each entry.

[
  {
    "Compound": "c1ccc(-c2ccncc2)cc1 [4-Phenylpyridine]",
    "Experimental result": 2.59
  },
  {
    "Compound": "Cc1ccc(N)cc1 [4-Methylaniline]",
    "Experimental result": 1.41
  },
  {
    "Compound": "Cc1ccc(N)c(C)c1 [2,4-Dimethylaniline]",
    "Experimental result": 1.68
  },
  {
    "Compound": "COc1ccccc1N [2-Methoxyaniline]",
    "Experimental result": 0.95
  },
  {
    "Compound": "CCOc1ccc(N)cc1 [4-Ethoxyaniline]",
    "Experimental result": 1.24
  },
  {
    "Compound": "CCc1ccccc1N [2-Ethylaniline]",
    "Experimental result": 1.67
  },
  {
    "Compound": "Nc1ccc(Br)cc1 [4-Bromoaniline]",
    "Experimental result": 1.74
  },
  {
    "Compound": "Cc1ccccn1 [2-Picoline]",
    "Experimental result": 1.09
  }
]

Next up:
I would be grateful if you could share the reported logDpH 10.0 for Cc1cccc(C)n1 [2,6-Dimethylpyridine] . 1.68

====

Cond: pH 8
Experimental: The retention behavior of the 42 basic compounds (Table 1) were investigated at different ratios of methanol (φ = 0.7–0.1, the interval was 0.1 or 0.05 based on the retention of the investigated solutes). […] The logD values of the model compounds and verification compounds calculated using Equation (S3) based on the logP and pH values are also listed in Table 1. At each pH, the retention time (tR) of every analyte was determined for at least four different volume fractions (φ) of methanol. […]
For each record, write down the corresponding logDpH 8.0.
Give bare numbers.

[
  {
    "Compound smiles": "Cc1ccncc1",
    "Experimental result": 1.33
  },
  {
    "Compound smiles": "Cc1cc(C)nc(C)c1",
    "Experimental result": 1.91
  }
]

Next up:
I would be grateful if you could share the reported logDpH 8.0 for `Nc1ccccc1` . 0.90

====

Measurement notes: IS-RPLC retention on silica-based C18 column, logkw by linear solvent strength model
Format: physicochemical
Cond: pH 9.0; methanol/20 mmol/L ammonium phosphate buffer, Welch Xtimate C18, 30 °C; 100% aqueous extrapolation
Measured endpoint: logkw-pH 9.0
Give bare numbers.

[
  {
    "Compound smiles": "Nc1ccc(Br)cc1",
    "logkw-pH 9.0": 1.99
  },
  {
    "Compound smiles": "NCc1ccccc1",
    "logkw-pH 9.0": 1.05
  }
]

Next up:
I would be grateful if you could share the reported logkw-pH 9.0 for `Cc1ccnc(N)c1` . 1.28

====

Cond: pH 7
Measured endpoint: logDpH 7.0
Give bare numbers.

Example compounds with recorded logDpH 7.0:
[
  {
    "Compound smiles": "CCc1ccccc1N",
    "logDpH 7.0": 1.63
  },
  {
    "Compound smiles": "Cc1cccc(C)n1",
    "logDpH 7.0": 1.52
  },
  {
    "Compound smiles": "Cc1cc(C)nc(C)c1",
    "logDpH 7.0": 1.44
  }
]

Next up:
I would be grateful if you could share the reported logDpH 7.0 for `Nc1ccc(N)cc1` . −0.38

====

Cond: pH 8
For each record, write down the corresponding logDpH 8.0.

Example compounds with recorded logDpH 8.0:
[
  {
    "Compound smiles": "Nc1ccc(N)cc1",
    "Experimental result": "−0.31"
  },
  {
    "Compound smiles": "Cc1ccc(N)cc1",
    "Experimental result": 1.41
  },
  {
    "Compound smiles": "CCN(CC)c1ccccc1",
    "Experimental result": 3.29
  },
  {
    "Compound smiles": "Cc1cccc(C)n1",
    "Experimental result": 1.66
  },
  {
    "Compound smiles": "c1ccc(CNCc2ccccc2)cc1",
    "Experimental result": 2.20
  }
]

Next up:
I would be grateful if you could share the reported logDpH 8.0 for `COc1ccccc1N` . 0.95

====

Measurement notes: IS-RPLC retention on silica-based C18 column, logkw by linear solvent strength model
Assay type: physicochemical
Cond: pH 10
Checkbox rule: logkw-pH 10.0 lower than 1 = Yes; logkw-pH 10.0 not lower than 1 = No.

[
  {
    "Molecule": "Cc1ccc(N)cc1 [4-Methylaniline]",
    "Class": "No"
  },
  {
    "Molecule": "Cc1c[nH]cn1 [4-Methylimidazole]",
    "Class": "Yes"
  },
  {
    "Molecule": "Nc1ccccc1N [1,2-diaminobenzene]",
    "Class": "Yes"
  }
]

Hello, I'm reviewing records and need to know if logkw-pH 10.0 of c1ccc(-c2ccncc2)cc1 [4-Phenylpyridine] is below 1. Could you check? No

Same question, COc1ccccc1N [2-Methoxyaniline] this time No

====

Measurement notes: IS-RPLC retention on silica-based C18 column, logkw by linear solvent strength model
Assay type: physicochemical
Cond: pH 7.0; methanol/20 mmol/L ammonium phosphate buffer, Welch Xtimate C18, 30 °C; 100% aqueous extrapolation
Protocol: The retention behavior of the 42 basic compounds (Table 1) were investigated at different ratios of methanol (φ = 0.7–0.1, the interval was 0.1 or 0.05 based on the retention of the investigated solutes). […] The logD values of the model compounds and verification compounds calculated using Equation (S3) based on the logP and pH values are also listed in Table 1. […] At each pH, the retention time (tR) of every analyte was determined for at least four different volume fractions (φ) of methanol. […]
Is logkw-pH 7.0 at least 2? Then 1. If not, 0.

[
  {
    "Compound smiles": "Nc1cccc(S(=O)(=O)c2cccc(N)c2)c1",
    "Class": 0
  },
  {
    "Compound smiles": "Nc1ccc(F)cc1",
    "Class": 0
  },
  {
    "Compound smiles": "Cc1cccc(C)n1",
    "Class": 0
  },
  {
    "Compound smiles": "Nc1ccc(Br)cc1",
    "Class": 0
  },
  {
    "Compound smiles": "Nc1ccccc1",
    "Class": 0
  },
  {
    "Compound smiles": "CC(C)c1ccc(N)cc1",
    "Class": 1
  },
  {
    "Compound smiles": "Cc1ccnc(N)c1",
    "Class": 0
  },
  {
    "Compound smiles": "Nc1ncncn1",
    "Class": 0
  },
  {
    "Compound smiles": "CN(C)Cc1ccccc1",
    "Class": 0
  },
  {
    "Compound smiles": "c1ccc(CNCc2ccccc2)cc1",
    "Class": 1
  }
]

State whether the measured logkw-pH 7.0 reaches 2, counting equality as reaching it, for `CCc1ccccc1N` 0

Same question, `Cc1ccccn1` this time 0
